experimentDescription: Human pregnane X receptor (PXR) small molecule agonists, qHTS cell viability counter screen (AID 1346977); also: nearly all actives have a fitted effect of over 50% in size
experimentalSetup: PXR-Luc HepG2 viability, CellTiter-Fluor, 24 h; series mostly up to 92.4 µM
Inconclusive results are not listed. Calls of active or inactive are those of the source. Calls follow the shape of the dose curve; as a rule, active = well fitted cell-killing curve with a large enough effect in the repeat runs; inconclusive = weak or mixed curves, or effect the other way; inactive = flat fitted curve, though single readings scatter.

{"columns": ["compound", "outcome"],
 "data": [
  ["O=[N+]([O-])c1ccc(Cl)c(Cl)c1", "inactive"],
  ["C[C@H]1C(=O)O[C@@H]2CCN3CC=C(COC(=O)[C@](C)(O)[C@]1(C)O)[C@H]23", "inactive"],
  ["CSc1nnc(C(C)(C)C)c(=O)n1N", "inactive"],
  ["Cc1ccc(N=C=O)cc1N=C=O", "inactive"],
  ["C=CCN=C=S", "inactive"],
  ["CCCCC(CC)C(=O)Cl (stereo not given)", "inactive"],
  ["CCOc1ccc(N)cc1", "inactive"],
  ["FC(F)(F)c1ccc(Cl)cc1", "inactive"],
  ["Cc1cccc(C)c1NC(=O)CN1CCCC1=O", "inactive"],
  ["ClC(Cl)c1ccccc1", "inactive"],
  ["OCC(O)CCl (stereo not given)", "inactive"],
  ["O=[N+]([O-])c1ccc(Cl)cc1", "inactive"],
  ["NNc1ccccc1", "inactive"],
  ["Clc1cnc(Oc2ccc(Oc3ncc(Cl)cc3Cl)cc2)c(Cl)c1", "inactive"],
  ["Cc1cccc(N)c1", "inactive"],
  ["O=C(O)Cc1ccccc1", "inactive"],
  ["COP(=S)(OC)SCN1C(=O)c2ccccc2C1=O", "inactive"],
  ["C=CC#N", "inactive"],
  ["C[C@]12CC[C@H](O)CC1=CC[C@@H]1[C@@H]2CC[C@]2(C)C(=O)CC[C@@H]12", "inactive"],
  ["O=C(O)C(Br)Br", "inactive"],
  ["N#Cc1ccccn1", "inactive"],
  ["C=CC(=O)OCCCCCC(C)C", "inactive"],
  ["CCSC(=O)N1CCCCCC1", "inactive"],
  ["OCc1ccco1", "inactive"],
  ["CC(C)CCCCCCOC(=O)c1ccccc1C(=O)OCCCCCCC(C)C", "inactive"]
]}
